EXPERIMENT_DESCRIPTION: chemical genetic growth profiling, strain panel (AID 1159580);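 also: tested at 20 µM; growth read once vehicle control cultures reached saturation at 30 °C; 1 = growth at the plate median or of vehicle wells; lower values mean less growth of the strain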
EXPERIMENTAL_CONTEXT: S. cerevisiae deletion strains, growth OD, locus YLR403W, strain SFP1, active compounds read low
In all, about 5,500 compounds went through this assay and about 2,000 (36%) were called active. Inconclusive results (about 18%) are left out. Some of the results follow.
Reported normalized growth values for a set of compounds
Keep it simple and answer with nothing but the number.

Below are worked cases with known answers.
                                   compound  reading
0  N#C/C(=N/Nc1ccccc1Cl)S(=O)(=O)c1ccc(Cl)cc1    0.811
1     S=C(Nc1cc(-c2cccs2)[nH]n1)Nc1ccccc1Cl    0.827
2            NC(N)=Nc1nc(-c2cc(Cl)sc2Cl)cs1    0.962
3  Cc1ccccc1C(=O)N1CCc2c([nH]c3ccccc23)C1C(F)(F)F (stereo not drawn)     0.93
4  O=C(Nc1c(Br)c(C2CC2)nn1-c1ccccc1)C(Cl)(Cl)Cl    0.714
5  COc1ccc(NC(=O)O/N=C(/N)c2ccc(Oc3c(Cl)cncc3Cl)cc2)cc1    0.756
6        O=C(CCN1CCCCC1)c1ccc(-c2ccccc2)cc1    0.755
7  O=C(NCc1ccco1)c1ccc(Oc2cc(Cl)cc(Cl)c2)o1    0.968
8  O=C(Nc1cc(Cl)cc(Cl)c1)Nc1cc(-c2cccs2)[nH]n1    0.806
9  N#C/C(=C\c1ccccc1Sc1ccc(Cl)cc1)S(=O)(=O)c1ccccn1    0.802

Prompt: I have this compound here, CC1=CC(=O)C(CCOCCC2=CC(=O)C(C)=CC2=O)=CC1=O , and I need its recorded normalized growth.
Response: 0.938

Prompt: I have this compound here, Cc1c(C(=O)N2CCCCC2)cc(-c2ccccc2)n1-c1ccccc1 , and I need its recorded normalized growth.
Response: 0.905

Prompt: I have this compound here, Cc1c(Cl)cccc1NC(=S)N1CCCN(c2ccc(C(F)(F)F)cc2[N+](=O)[O-])CC1 , and I need its recorded normalized growth.
Response: 0.952

* * *

EXPERIMENT_DESCRIPTION: chemical genetic growth profiling, strain panel (AID 1159580)
EXPERIMENTAL_CONTEXT: S. cerevisiae deletion strains, growth OD, locus YGR252W, strain gcn5, active compounds read low
In all, about 5,500 compounds went through this assay and about 2,000 (36%) were called active. Roughly 18% stayed inconclusive and do not appear here. Some of the results follow.
Reported normalized growth values for a set of compounds
Keep it simple and answer with nothing but the number.

Below are worked cases with known answers.
COMPOUND	normalized growth
CC(=O)O[C@]1(C(C)=O)CCC2C3C[C@H](C)C4=CC(=O)CC[C@]4(C)C3CC[C@@]21C (some centres not stated)	0.926
C=C1CC[C@H](O)C/C1=C/C=C1\CCC[C@]2(C)C([C@H](C)/C=C/[C@H](C)C(C)C)CC[C@@H]12 (some centres not stated)	1.08
CCN(CC)C(=S)SSC(=S)N(CC)CC	0.111
CO[C@H]1C[C@H](O[C@H]2[C@H](C)[C@@H](OC3O[C@H](C)C[C@H](N(C)C)[C@H]3O)[C@@H](C)C[C@]3(CO3)C(=O)[C@H](C)[C@@H](O)[C@@H](C)[C@@H](C)OC(=O)[C@@H]2C)O[C@@H](C)[C@@H]1O (some centres not stated)	1.14
CC1(O)/C=C/C=C(\CO)C2CC(C)(C)C2(O)CC1 (configuration not stated)	0.956
CC(=O)[C@H]1CCC2C3C[C@H](C)C4=CC(=O)CC[C@]4(C)C3[C@@H](O)C[C@@]21C (some centres not stated)	1.06

Prompt: I have this compound here, Cc1c(N(C)C)c(=O)n(-c2ccccc2)n1C , and I need its recorded normalized growth.
Response: 1.1

* * *

EXPERIMENT_DESCRIPTION: chemical genetic growth profiling, strain panel (AID 1159580)
EXPERIMENTAL_CONTEXT: S. cerevisiae deletion strains, growth OD, locus YNR049C, strain mso1, active compounds read low
Out of some 5,500 compounds screened, about 2,000 (36%) were called active. About 18% were inconclusive and are not listed. Some of the results follow.
For each record, check the reported normalized growth: if it is below 1 write true, else write false.

Prompt: # TODO verify normalized growth < 1 strictly for this compound: CCCCCCCCCCCCC[N+](C)(C)Cc1ccccc1
Response: true

Prompt: # TODO verify normalized growth < 1 strictly for this compound: O=C(/C=C/c1ccccc1)O[C@H]1C[C@@H](O)[C@]2(O)C=CO[C@@H](O[C@@H]3O[C@H](CO)[C@@H](O)[C@H](O)[C@H]3O)[C@H]12
Response: false

Prompt: # TODO verify normalized growth < 1 strictly for this compound: COc1ccc2c(c1)[C@@]1(C)CCC(=O)C[C@H]1CC2
Response: true

* * *

EXPERIMENT_DESCRIPTION: chemical genetic growth profiling, strain panel (AID 1159580);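 also: tested at 20 µM; growth read once vehicle control cultures reached saturation at 30 °C; 1 = growth at the plate median or of vehicle wells; lower values mean less growth of the strain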
EXPERIMENTAL_CONTEXT: S. cerevisiae deletion strains, growth OD, locus YNL322C, strain KRE1, active compounds read low
Out of some 5,500 compounds screened, about 2,000 (36%) were called active. Inconclusive results (about 18%) are left out. Some of the results follow.
MEASUREMENT_LABEL: normalized growth
Keep it simple and answer with nothing but the number.

>>> df
                                   molecule  measurement_label  reading
0             CCCCCCCc1c(O)c2ccccc2[nH]c1=O  normalized growth    0.997
1  O=C1C[C@@H](c2ccc(O)cc2)Oc2cc(O)cc(O)c21  normalized growth     1.01
2  CC(=O)OCc1ccc(/C=C(\C#N)S(=O)(=O)c2ccc(Cl)cc2)o1  normalized growth    0.985
3  O[Si](CCCN1CCCCC1)(c1ccc(F)cc1)C1CCCCC1 (stereo not drawn)  normalized growth    0.982
4  O=C1CC(c2ccc(O)cc2)Oc2ccccc21 (stereo not drawn)  normalized growth      0.9
5  CC1(O)/C=C/C=C(\CO)C2CC(C)(C)C2(O)CC1 (stereo not drawn)  normalized growth     1.02

Prompt: I have this molecule here, O=C1C[C@@H](c2ccccc2)Oc2cc(O)cc(O)c21 , and I need its recorded normalized growth.
Response: 0.938

Prompt: I have this molecule here, O=c1[nH]c2ccccc2c2ccccc12 , and I need its recorded normalized growth.
Response: 0.983

* * *

Reported normalized growth values for a set of compounds
EXPERIMENT_DESCRIPTION: chemical genetic growth profiling, strain panel (AID 1159580);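 also: tested at 20 µM; growth read once vehicle control cultures reached saturation at 30 °C; 1 = growth at the plate median or of vehicle wells; lower values mean less growth of the strain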
EXPERIMENTAL_CONTEXT: S. cerevisiae deletion strains, growth OD, locus YLL001W, strain dnm1, active compounds read low
The campaign covered roughly 5,500 compounds. About 2,000 (36%) were called active. Another 18% or so got no clear call; they are omitted. This is one part of the list.
Keep it simple and answer with nothing but the number.

Below are worked cases with known answers.
COMPOUND	MEASUREMENT_LABEL	READING
CN=C(NC#N)NCCSCc1nc(N=C(N)N)cs1	normalized growth	0.985
CCSC(=N)N	normalized growth	1.02
COC1C(O)C(O)C(O)[C@@H](O)C1O (some centres not stated)	normalized growth	0.944
C[N+](C)(C)CC(=O)[O-]	normalized growth	0.949
CCc1nc(N)nc(N)c1-c1ccc(Cl)cc1	normalized growth	0.942
CCCCCC(=O)O[C@]1(C(C)=O)CCC2C3CCC4=CC(=O)CC[C@]4(C)C3CC[C@@]21C (some centres not stated)	normalized growth	1
CC(=O)OC1CC23CC24CCC(OC2OCC(O)C(O)C2O)C(C)(C)C4CCC3C2(C)CC3OC4(CC(C)C3C12C)OC(O)C1(C)OC41 (configuration not stated)	normalized growth	1.01
O=C(/C=C/c1ccccc1)O[C@H]1C[C@@H](O)[C@]2(O)C=CO[C@@H](O[C@@H]3O[C@H](CO)[C@@H](O)[C@H](O)[C@H]3O)[C@H]12	normalized growth	1.02
CC1(C)C2CC[C@]3(C)C(C(=O)C=C4[C@@H]5C[C@@](C)(C(=O)O)CC[C@]5(C)CC[C@]43C)[C@@]2(C)CC[C@@H]1OC(=O)CCC(=O)O (some centres not stated)	normalized growth	1
C=CCc1ccc2c(c1)OCO2	normalized growth	1.05

Prompt: I have this compound here, CC(=O)[C@H]1CCC2C3C[C@H](C)C4=CC(=O)CC[C@]4(C)C3[C@@H](O)C[C@@]21C (some centres not stated) , and I need its recorded normalized growth.
Response: 0.947

Prompt: I have this compound here, CC(=O)O[C@]1(C(C)=O)CCC2C3C=C(C)C4=CC(=O)CCC4(C)C3CCC21C (some centres not stated) , and I need its recorded normalized growth.
Response: 0.886

* * *

EXPERIMENT_DESCRIPTION: chemical genetic growth profiling, strain panel (AID 1159580);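 also: tested at 20 µM; growth read once vehicle control cultures reached saturation at 30 °C; 1 = growth at the plate median or of vehicle wells; lower values mean less growth of the strain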
EXPERIMENTAL_CONTEXT: S. cerevisiae deletion strains, growth OD, locus YNL307C, strain MCK1, active compounds read low
Out of some 5,500 compounds screened, about 2,000 (36%) were called active. Another 18% or so got no clear call; they are omitted. The list shows a part of the results.
MEASUREMENT_LABEL: normalized growth
Keep it simple and answer with nothing but the number.

Below are worked cases with known answers.
                                   molecule  measurement_label  reading
0  CN1Cc2c(ccc3c2OCO3)C2C(O)Cc3cc4c(cc3C21)OCO4 (configuration not stated)  normalized growth     1.02
1  O=C(O)C1CC([C@@H]2CCCCN2)CN2CCCCC12 (some centres not stated)  normalized growth    0.999
2  COc1ccc2c(c1)OC[C@@H](Cc1ccc(OC)c(OC)c1)[C@H]2O  normalized growth    0.971
3  CC1(O)/C=C/C=C(\CO)C2CC(C)(C)C2(O)CC1 (configuration not stated)  normalized growth    0.997

Prompt: I have this molecule here, C=CC1=C(C(=O)O)N2C(=O)[C@@H](NC(=O)/C(=N/O)c3csc(N)n3)[C@H]2SC1 , and I need its recorded normalized growth.
Response: 1.01

Prompt: I have this molecule here, COc1ccc(CC2c3cc(OC)c(OC)cc3CCN2C)cc1OC (configuration not stated) , and I need its recorded normalized growth.
Response: 0.998

Prompt: I have this molecule here, CN1CCc2cc3c(cc2C1O)OCO3 (configuration not stated) , and I need its recorded normalized growth.
Response: 0.988
